Attribution: patent US20170369590A1

Biological target: human epidermal growth factor receptor 2 (HER2), membrane-bound on cells (human, UniProt P04626 23-1255)
Test: cell-based or functional assay
Measure Name: % cells killed, A431, anti-kappa-ETA'-conjugated (%)
State just the number; it will be interpreted in %.

HuMab 091 (antibody, V domains shown, also called TH1014-091; PC1014-091) VH: QVQLQQWGAGLLKPSETLSLTCAVSGGSFSGYYWTWIRQPPGKGLEWIGEIYHSGDTNYNPSLKSRVTISVDTSKNQFSLKLYSVTAADTAVYYCARLYFGSGIYYLDYWGQGTLVTVSS VL: DIQMTQSPSSLSASVGDRVTITCRASQGISSWLVWYQQKPEKAPKSLIYAASSLQSGVPSRFSGSGSGTDFTLTISSLQPEDFATYYCQQYNSFPPTFGQGTKVEIK yielded % cells killed, A431, anti-kappa-ETA'-conjugated of 83.3
